Listing of entries alongside the reported ICAM-1 % inh..
- System: ICAM-1
- experimental_details: Cell surface ELISA for ICAM-1 in human umbilical vein endothelial cells (HUVEC), TNF-alpha induced
- Assay type: cell-based
- stated_conditions: 50 μM, average of two runs, numbers in parentheses represent negative values

>  <structure>
CC(C)(C)c1cc(OC[Si](C)(C)c2ccc(C(F)(F)F)cc2)cc(C(C)(C)C)c1O

>  <ICAM-1 % inh.>
2.5%

$$$$
>  <structure>
CC(C)(C)c1cc(SC[Si](C)(C)C)cc(C(C)(C)C)c1OC(=O)CCC(=O)O

>  <ICAM-1 % inh.>
53%

$$$$
>  <structure>
CN(C)c1ccc([Si](C)(C)COc2cc(C(C)(C)C)c(O)c(C(C)(C)C)c2)cc1

>  <ICAM-1 % inh.>
1.5%

$$$$
>  <structure>
Cc1cc(O)c(C)c(C)c1OC[Si](C)(C)c1ccccc1

>  <ICAM-1 % inh.>
78.5%

$$$$
>  <structure>
Cc1cc(OC[Si](C)(C)c2ccccc2)c(C)c(C)c1O

>  <ICAM-1 % inh.>
75.5%

$$$$

---

- experimental_details: Food consumption, body and liver weight in cholesterol-fed rabbits
- Type: in vivo, female New Zealand White rabbits
- stated_conditions: rabbit, diet 0.4%, 7 days
Listing of entries alongside the reported lw/bw (liver weight/body weight), percent of control.
measured_endpoint: lw/bw (liver weight/body weight), percent of control (%)

>  <structure>
CC(C)(C)c1cc(OC[Si](C)(c2ccccc2)c2ccccc2)ccc1O

>  <readout_unit>
%

>  <test_result>
106

$$$$
>  <structure>
CC(C)(C)c1cc(OC[Si](C)(C)c2ccc(C(F)(F)F)cc2)cc(C(C)(C)C)c1O

>  <readout_unit>
%

>  <test_result>
108

$$$$
>  <structure>
CC(=O)Oc1ccc(OC[Si](C)(C)c2ccccc2)cc1C(C)(C)C

>  <readout_unit>
%

>  <test_result>
90

$$$$
>  <structure>
COc1ccc([Si](C)(C)COc2ccc(O)c(C(C)(C)C)c2)cc1

>  <readout_unit>
%

>  <test_result>
94

$$$$
>  <structure>
COc1ccc([Si](C)(COc2cc(C(C)(C)C)c(O)c(C(C)(C)C)c2)c2ccc(OC)cc2)cc1

>  <readout_unit>
%

>  <test_result>
103

$$$$
>  <structure>
CC(C)(C)c1cc(OC[Si](C)(c2ccccc2)c2ccccc2)cc(C(C)(C)C)c1O

>  <readout_unit>
%

>  <test_result>
86

$$$$
>  <structure>
CC(C)(C)c1cc(OC[Si](C)(C)c2ccccc2)ccc1O

>  <readout_unit>
%

>  <test_result>
89

$$$$
>  <structure>
CC(C)(C)c1cc(OC[Si](C)(C)c2ccccc2)c(C(C)(C)C)cc1O

>  <readout_unit>
%

>  <test_result>
71

$$$$
>  <structure>
CN(C)c1ccc([Si](C)(C)COc2cc(C(C)(C)C)c(O)c(C(C)(C)C)c2)cc1

>  <readout_unit>
%

>  <test_result>
96

$$$$

---

Listing of entries alongside the reported body wt., percent of control.
- experimental_details: Animal parameters (food, body weight, liver weight, mortality) in rats
- Type: in vivo, male Sprague-Dawley rats
- stated_conditions: rat, diet 0.1%, 4 days

>  <structure>
CC(=O)Oc1ccc(OC[Si](C)(C)c2ccccc2)cc1C(C)(C)C

>  <body wt., percent of control / %>
101

$$$$
>  <structure>
CN(C)c1ccc([Si](C)(C)COc2cc(C(C)(C)C)c(O)c(C(C)(C)C)c2)cc1

>  <body wt., percent of control / %>
103

$$$$
>  <structure>
CC(C)(C)c1cc(OC[Si](C)(C)c2ccccc2)ccc1O

>  <body wt., percent of control / %>
95

$$$$
>  <structure>
CC(C)(C)c1cc(OC[Si](C)(C)c2ccc(C(F)(F)F)cc2)cc(C(C)(C)C)c1O

>  <body wt., percent of control / %>
98

$$$$

---

- Test system: VCAM-1
- experimental_details: Cell surface ELISA for VCAM-1 in human aortic smooth muscle cells (HASMC), interleukin-4 induced
- Format: cell-based
- stated_conditions: 50 μm, experiment HSMC-2, interleukin-4, about 20 hr
Listing of entries alongside the reported HSMC-2 % inh. of VCAM-1.

>  <structure>
CC(C)(C)c1cc(SC[Si](C)(C)C)cc(C(C)(C)C)c1OC(=O)CCC(=O)O

>  <HSMC-2 % inh. of VCAM-1 [%]>
52.0

$$$$
>  <structure>
CC(C)(C)c1cc(OC[Si](C)(C)c2ccc(C(F)(F)F)cc2)cc(C(C)(C)C)c1O

>  <HSMC-2 % inh. of VCAM-1 [%]>
20.0

$$$$
>  <structure>
CC(=O)Oc1ccc(OC[Si](C)(C)c2ccccc2)cc1C(C)(C)C

>  <HSMC-2 % inh. of VCAM-1 [%]>
44.0

$$$$
>  <structure>
CN(C)c1ccc([Si](C)(C)COc2cc(C(C)(C)C)c(O)c(C(C)(C)C)c2)cc1

>  <HSMC-2 % inh. of VCAM-1 [%]>
58.0

$$$$
>  <structure>
CC(C)(C)c1cc(OC[Si](C)(c2ccccc2)c2ccccc2)cc(C(C)(C)C)c1O

>  <HSMC-2 % inh. of VCAM-1 [%]>
38.0

$$$$
>  <structure>
Cc1cc(O)c(C)c(C)c1OC[Si](C)(C)c1ccccc1

>  <HSMC-2 % inh. of VCAM-1 [%]>
54.0

$$$$
>  <structure>
CC(=O)Oc1c(C(C)(C)C)cc(OC[Si](C)(C)c2ccccc2)cc1C(C)(C)C

>  <HSMC-2 % inh. of VCAM-1 [%]>
45.0

$$$$
>  <structure>
CC(C)(C)c1cc(OC[Si](C)(C)c2ccccc2)ccc1O

>  <HSMC-2 % inh. of VCAM-1 [%]>
57.0

$$$$

---

- experimental_details: Animal parameters (food, body weight, liver weight, mortality) in rats
- Format: in vivo, male Sprague-Dawley rats
- stated_conditions: rat, diet 0.1%, 4 days
measured_endpoint: lw/bw (liver weight/body weight), percent of control

>  <structure>
CC(C)(C)c1cc(OC[Si](C)(C)c2ccc(C(F)(F)F)cc2)cc(C(C)(C)C)c1O

>  <test_result>
105%

$$$$
>  <structure>
CN(C)c1ccc([Si](C)(C)COc2cc(C(C)(C)C)c(O)c(C(C)(C)C)c2)cc1

>  <test_result>
106%

$$$$
>  <structure>
CC(=O)Oc1ccc(OC[Si](C)(C)c2ccccc2)cc1C(C)(C)C

>  <test_result>
110%

$$$$
>  <structure>
CC(C)(C)c1cc(OC[Si](C)(C)c2ccccc2)ccc1O

>  <test_result>
106%

$$$$

---

- experimental_details: Clinical chemistries in serum of rats
- Type: in vivo, male Sprague-Dawley rats
- stated_conditions: rat serum, diet 0.1%, 4 days
measured_endpoint: ALT (alanine aminotransferase), percent of control (%)

>  <structure>
CC(C)(C)c1cc(OC[Si](C)(C)c2ccccc2)ccc1O

>  <readout_unit>
%

>  <test_result>
133

$$$$
>  <structure>
CN(C)c1ccc([Si](C)(C)COc2cc(C(C)(C)C)c(O)c(C(C)(C)C)c2)cc1

>  <readout_unit>
%

>  <test_result>
125

$$$$
>  <structure>
CC(=O)Oc1ccc(OC[Si](C)(C)c2ccccc2)cc1C(C)(C)C

>  <readout_unit>
%

>  <test_result>
116

$$$$
>  <structure>
CC(C)(C)c1cc(OC[Si](C)(C)c2ccc(C(F)(F)F)cc2)cc(C(C)(C)C)c1O

>  <readout_unit>
%

>  <test_result>
96

$$$$

---

Listing of entries alongside the reported response vs control in vivo at 0.4 %.
- Test system: oxidation of serum lipids
- experimental_details: TBARS assay, serum of cholesterol-fed rabbits
- Assay type: in vivo, female New Zealand White rabbits
- stated_conditions: Oryctolagus cuniculus, po, 168 h; rabbit serum, diet 0.4%, 7 days; read-out: TBARS, percent of control

>  <structure>
COc1ccc([Si](C)(COc2cc(C(C)(C)C)c(O)c(C(C)(C)C)c2)c2ccc(OC)cc2)cc1

>  <system_under_test>
oxidation of serum lipids

>  <response vs control in vivo at 0.4 %, %>
89

$$$$
>  <structure>
CC(C)(C)c1cc(OC[Si](C)(C)c2ccccc2)ccc1O

>  <system_under_test>
oxidation of serum lipids

>  <response vs control in vivo at 0.4 %, %>
32

$$$$
>  <structure>
COc1ccc([Si](C)(C)COc2ccc(O)c(C(C)(C)C)c2)cc1

>  <system_under_test>
oxidation of serum lipids

>  <response vs control in vivo at 0.4 %, %>
70

$$$$
>  <structure>
CN(C)c1ccc([Si](C)(C)COc2cc(C(C)(C)C)c(O)c(C(C)(C)C)c2)cc1

>  <system_under_test>
oxidation of serum lipids

>  <response vs control in vivo at 0.4 %, %>
70

$$$$
>  <structure>
CC(=O)Oc1ccc(OC[Si](C)(C)c2ccccc2)cc1C(C)(C)C

>  <system_under_test>
oxidation of serum lipids

>  <response vs control in vivo at 0.4 %, %>
42

$$$$
>  <structure>
CC(C)(C)c1cc(OC[Si](C)(c2ccccc2)c2ccccc2)cc(C(C)(C)C)c1O

>  <system_under_test>
oxidation of serum lipids

>  <response vs control in vivo at 0.4 %, %>
79

$$$$
>  <structure>
CC(C)(C)c1cc(OC[Si](C)(c2ccccc2)c2ccccc2)ccc1O

>  <system_under_test>
oxidation of serum lipids

>  <response vs control in vivo at 0.4 %, %>
68

$$$$
>  <structure>
CC(C)(C)c1cc(OC[Si](C)(C)c2ccccc2)c(C(C)(C)C)cc1O

>  <system_under_test>
oxidation of serum lipids

>  <response vs control in vivo at 0.4 %, %>
19

$$$$

Values compiled from patent US5608095A.
